Tested on: P. falciparum stage V gametocytes
Set-up: BacTiter-Glo ATP luminescence viability of purified stage V gametocytes in 384-well plates, per cent inhibition versus DMSO
ASSAY CONDITIONS: 48 h, 5 µM; inhibitor
The campaign covered roughly 13,000 compounds. About 3,200 (25%) showed an effect of 50% or more. This is one part of the list.
MEASURED METRIC: % Inhibition (%)
Give just the number in %; leave the unit off.

Exam item: # get_value(readout='% Inhibition', item= CN1CCN(C(C(=O)NCc2cc(Cl)cc(Cl)c2)c2ccc(NC(=O)Nc3ccccc3)cc2)CC1 (stereo not shown) )
Marked response: 18.98

Exam item: Given COc1ccccc1N1CCN(C(C(=O)NCc2ccc(C)cc2)c2ccc(C)cc2)CC1 (stereo not shown) , state its recorded % Inhibition.
Marked response: -5.21

Exam item: Query: % Inhibition; subject: CN1CCN(C(C(=O)NCc2cc(Cl)cc(Cl)c2)c2ccccc2-c2ccsc2)CC1 (stereo not shown)
Marked response: 68.05

Exam item: Consider the molecule CN1CCN(C(C(=O)NCc2cc(Cl)cc(Cl)c2)c2ccc(Nc3cccc(C(F)(F)F)c3)cc2)CC1 (stereo not shown) and give its measured % Inhibition.
Marked response: -89.62

###

Test system: P. falciparum stage V gametocytes
Set-up: BacTiter-Glo ATP luminescence viability of purified stage V gametocytes in 384-well plates, per cent inhibition versus DMSO
ASSAY CONDITIONS: 48 h, 5 µM; inhibitor
The whole screen tested about 13,000 compounds, of which about 3,200 (25%) showed an effect of 50% or more. Some of the results follow.
Consider the following compounds; for each one, report its % Inhibition.
# do not omit the unit; it follows the number

Exam item: Give its % Inhibition value. Item: Cc1ccc(-n2c(Cc3cccc4ccccc34)nnc2SCCC#N)c(C)c1 [TCMDC-123560]
Marked response: -0.8399%

Exam item: Could you share which % Inhibition value was measured for CCc1nc(N)nc(N)c1-c1ccccc1 [TCMDC-124296] ?
Marked response: -28.74%

Exam item: Which % Inhibition is listed for COc1cc(F)c2nccc([C@@H](O)CN3CCC(NCc4cc5c(cc4F)OCCO5)CC3)c2c1 [TCMDC-141570] ?
Marked response: 69.54%

Exam item: Give the measured % Inhibition of CCCCCCN(CCCCCC)CCCCNc1c2ccc(Cl)cc2nc2ccc(OC)cc12 [TCMDC-137520] .
Marked response: 100.6%

Exam item: Which % Inhibition value is on record for COc1cccc(OC2CCN(C(=O)c3cc(C(C)(C)C)nn3Cc3ccccc3)CC2)c1 [TCMDC-134143] ?
Marked response: -6.866%

Exam item: Record request: % Inhibition value, item O=C(CN1CCC2(CCC1=O)CC(=O)c1ccccc1O2)NCCN1CCOCC1 (stereo not shown) [TCMDC-133148]
Marked response: 11.41%

Exam item: Field request: % Inhibition | item: COc1ccc2nccc([C@@H](O)CN3CCC(NCc4ccc5c(c4)NC(=O)C(C)S5)CC3)c2c1 (stereo partly shown) [TCMDC-141222]
Marked response: 79.58%

Exam item: Which % Inhibition is reported for this compound? CCN(CC)CCCCCNc1c2ccc(Cl)cc2nc2ccc(OC)cc12 [TCMDC-137514]
Marked response: 94.78%

Exam item: Would you kindly share the measured % Inhibition for O=C(Nc1cccc(N2CCC(NCc3cnn(-c4cccc(F)c4)c3)CC2)c1)c1ccncc1 [TCMDC-124666] ?
Marked response: 1.522%

Exam item: Entry under review: C[C@H]1CN(Cc2cccc(-c3cc(CNC(=O)c4cccc(CN5CCN(C/C=C/c6ccccc6)CC5)c4)ccc3F)c2)CCN1 [TCMDC-136208] . Reported % Inhibition?
Marked response: 114.8%

Exam item: Can you look up the measured % Inhibition of COc1ccc2nccc([C@@H](O)CN3CCC(NCc4ccc5c(c4)NC(=O)CO5)CC3)c2c1 [TCMDC-140793] for me?
Marked response: 20.76%

Exam item: For the compound shown here, CCOC(=O)CNC(=O)c1cc(=O)c2ccccc2o1 [TCMDC-131778] , give the reported % Inhibition.
Marked response: 11.83%

Exam item: State the recorded % Inhibition for this entry: CNCCCNCc1ccc(-c2ccc(F)c(Cl)c2)o1 [TCMDC-125237]
Marked response: 65.13%

Exam item: State the recorded % Inhibition for this entry: CN(C)CCCNCc1ccc(-c2ccc(F)c(Cl)c2)o1 [TCMDC-125238]
Marked response: 41.34%

Exam item: Would you mind telling me what % Inhibition value was observed for CNS(=O)(=O)CCNCc1ccc(-c2ccc3ncnc(Nc4ccc(OCc5ccccc5)cc4)c3c2)o1 [TCMDC-138102] ?
Marked response: -59.33%

Exam item: Could you share which % Inhibition value was measured for c1ccc(CN2CCC(NCc3ccc(-c4cccc(CNC5CCCC5)c4)cc3)CC2)cc1 [TCMDC-140491] ?
Marked response: 106.1%

Exam item: Which % Inhibition is listed for CCCCN(CCCC)CCCCNc1c2ccc(Cl)cc2nc2ccc(OC)cc12 [TCMDC-137460] ?
Marked response: 99.56%

Exam item: Record request: % Inhibition value, item COc1cccc(CC(=O)N2CCC(n3c(C)nc4ccc(C)cc43)CC2)c1 [TCMDC-124791]
Marked response: 93.69%

Exam item: Give its % Inhibition value. Item: O=C(NCc1cc2c(cc1Cl)OCO2)c1ccc(CNC2CCN(Cc3ccccc3)CC2)cc1 [TCMDC-140786]
Marked response: 7.44%

Exam item: I'd like to know its % Inhibition. The compound in question is Cc1cc2c(cc1C(F)(F)F)N(C(=O)Nc1ccc(C(=O)NC3CCN(Cc4ccccc4)C3)cc1)CC2 (stereo not shown) [TCMDC-139871]
Marked response: 23.78%

Exam item: What value of % Inhibition has been reported for the following compound? FC(F)(F)c1cccnc1N1CCC(Nc2nc3ccc(Cl)cc3[nH]2)CC1 [TCMDC-135644]
Marked response: -32.98%

Exam item: For Cc1ccc(CON2C(N)=NC(N)=NC23CCCCC3)c2ccccc12 [TCMDC-131589] , what is its reported % Inhibition?
Marked response: 35.49%

Exam item: What % Inhibition value was documented for this compound, CC(C)(C)C(=O)Nc1c(-c2cc(=O)oc3cc4c(cc23)CCC4)oc2ccccc12 [TCMDC-125081] ?
Marked response: 76.3%

Exam item: Reported % Inhibition, compound Cc1ccc2cc(NCCCCCCCCON3C(N)=NC(N)=NC34CCCCC4)ccc2n1 [TCMDC-140362] : ____
Marked response: 9.593%

Exam item: Name the recorded % Inhibition for COc1ccc2nccc([C@@H](O)CN3CCC(NCc4cc5cc(Cl)ccc5[nH]4)CC3)c2c1 [TCMDC-140697] .
Marked response: 66.18%

Exam item: I have this compound here, COc1cccc(CNC(=O)c2cccc(-c3cccc(CN4CCC(N5CCCC5)CC4)c3)n2)c1 [TCMDC-134417] , and I need its recorded % Inhibition.
Marked response: 25.8%

Exam item: Fill blank: measured % Inhibition of the compound Oc1cc(Nc2ccnc3cc(-c4ccc(CN5CCCCC5)o4)c(Cl)cc23)c(Cl)cc1F [TCMDC-138470] is ____.
Marked response: 7.124%

Exam item: // returns reported % Inhibition for input OC(c1n[nH]c(=S)n1-c1ccccc1)C(O)c1n[nH]c(=S)n1-c1ccccc1 (stereo not shown) [TCMDC-125763]
Marked response: 1.463%

Exam item: Give its % Inhibition value. Item: C(=Cc1ccccc1)C=NNc1ccnc2ccccc12 [TCMDC-142061]
Marked response: -65.55%

Exam item: Form field: reported % Inhibition of CCCCCC(C)c1cc(O)c2c(c1)OC(C)(C)C=C2C1=CCN(Cc2ccccc2)CC1 (stereo not shown) [TCMDC-131350]
Marked response: -56.28%

Exam item: Given the entry COc1ccc(C(=O)CCc2ccc(O)cc2)cc1 [TCMDC-124290] , report its measured % Inhibition.
Marked response: -50.17%

Exam item: So what's the measured % Inhibition for this one? CC(C)n1ncc2c(C(=O)N3CCCC4CCCCC43)cc(C3CC3)nc21 (stereo not shown) [TCMDC-125305]
Marked response: -1.205%

Exam item: If you can, please state the reported % Inhibition value of C=CCOc1ccc(CNC2CCN(Cc3ccccc3)CC2)cc1Br [TCMDC-125268] .
Marked response: 13.93%

Exam item: // returns reported % Inhibition for input COc1ccc2nccc([C@@H](O)CN3CCC(NCc4ccc5c(c4)NC(=O)CS5)CC3)c2c1 [TCMDC-141058]
Marked response: 3.469%
